Test system: Vero
TEST METHOD NOTES: Cytotoxicity against african green monkey Vero cells after 48 hrs by Neutral red assay
Format: cell-based, Chlorocebus sabaeus
CONDITION DETAILS: vero

CPD SMILES	SYSTEM NAME	IC50
CC1(C)CCC[C@]2(C)[C@H]3C[C@@H](O)[C@]4(C)c5cocc5C=C[C@H]4[C@]3(C)CC[C@@H]12	Vero	Not Active
CO[C@@H]1O[C@@H](OC)[C@H]2C1=CC[C@H]1[C@]3(C)CC[C@H]4C(C)(C)CCC[C@]4(C)[C@H]3C[C@@H](O)[C@]21C	Vero	Not Active
CO[C@@H]1C[C@H]2[C@]3(C)CC[C@H]4C(C)(C)CCC[C@]4(C)[C@H]3C[C@@H](O)[C@]2(C)c2cocc21	Vero	Not Active
